Tested on: NCI-H2228
test name: relative viability (nuclei count vs DMSO), 5 days (fraction); higher = more cells survive
measurement parameters: first compound 0.8 µM
endpoint: relative viability
A bare number is all that is needed in reply.

Given COc1nc(C)cnc1NS(=O)(=O)c1cccnc1-c1ccc(-c2nnco2)cc1 [Zibotentan] + CC(C)C[C@H](NC(=O)[C@H](Cc1ccccc1)NC(=O)c1cnccn1)B(O)O [Bortezomib] (partner 0.002 µM) , respond with its relative viability.
0.97

---

Test system: COR-L 105
test name: relative viability (nuclei count vs DMSO), 5 days (fraction); higher = more cells survive
measurement parameters: first compound 0.1 µM
Catalogue of relative viability values
Just the number, please, no unit attached.

O=c1cc(N2CCOCC2)oc2c(-c3cccc4c3sc3ccccc34)cccc12 + Cc1nc(NC(=O)N2CCC[C@H]2C(N)=O)sc1-c1ccnc(C(C)(C)C(F)(F)F)c1 [Alpelisib] (partner 2 µM): 0.834
CCN(CC)CCCCNc1ncc2cc(-c3cc(OC)cc(OC)c3)c(NC(=O)NC(C)(C)C)nc2n1 + CCNC(=O)c1noc(-c2cc(C(C)C)c(O)cc2O)c1-c1ccc(CN2CCOCC2)cc1 [Luminespib] (partner 0.01 µM): 0.73
O=c1cc(N2CCOCC2)oc2c(-c3cccc4c3sc3ccccc34)cccc12 + Nc1nc2[nH]cc(CCc3ccc(C(=O)N[C@@H](CCC(=O)O)C(=O)O)cc3)c2c(=O)[nH]1 [Pemetrexed] (partner 0.2 µM): 1.1
O=c1cc(N2CCOCC2)oc2c(-c3cccc4c3sc3ccccc34)cccc12 + CS(=O)(=O)CCNCc1ccc(-c2ccc3ncnc(Nc4ccc(OCc5cccc(F)c5)c(Cl)c4)c3c2)o1 [Lapatinib] (partner 2 µM): 0.397
CCN(CC)CCCCNc1ncc2cc(-c3cc(OC)cc(OC)c3)c(NC(=O)NC(C)(C)C)nc2n1 + CC(C)C[C@H](NC(=O)[C@H](Cc1ccccc1)NC(=O)c1cnccn1)B(O)O [Bortezomib] (partner 0.002 µM): 0.859
O=c1cc(N2CCOCC2)oc2c(-c3cccc4c3sc3ccccc34)cccc12 + COc1cccc2cc(-c3nc([C@H]4CC[C@H](C(=O)O)CC4)n4ncnc(N)c34)[nH]c12 [OSI-027] (partner 0.5 µM): 0.656
O=c1cc(N2CCOCC2)oc2c(-c3cccc4c3sc3ccccc34)cccc12 + O=C(CCCCCCC(=O)Nc1ccccc1)NO [Vorinostat] (partner 1 µM): 0.899
CCN(CC)CCCCNc1ncc2cc(-c3cc(OC)cc(OC)c3)c(NC(=O)NC(C)(C)C)nc2n1 + CC(=O)c1c(C)c2cnc(Nc3ccc(N4CCNCC4)cn3)nc2n(C2CCCC2)c1=O [Palbociclib] (partner 0.5 µM): 0.427

Name the recorded relative viability of the item O=c1cc(N2CCOCC2)oc2c(-c3cccc4c3sc3ccccc34)cccc12 + Cc1nc(Nc2ncc(C(=O)Nc3c(C)cccc3Cl)s2)cc(N2CCN(CCO)CC2)n1 [Dasatinib] (partner 0.075 µM) in your answer.
0.314
